Target: p110α Type Ia human PI3K (Homo sapiens, UniProt P42336)
Construct: full length DNA of each of the p110α, p110β and p110δ Type Ia human PI3K p110 isoforms; 6-His
Sequence (P42336 whole entry, canonical isoform): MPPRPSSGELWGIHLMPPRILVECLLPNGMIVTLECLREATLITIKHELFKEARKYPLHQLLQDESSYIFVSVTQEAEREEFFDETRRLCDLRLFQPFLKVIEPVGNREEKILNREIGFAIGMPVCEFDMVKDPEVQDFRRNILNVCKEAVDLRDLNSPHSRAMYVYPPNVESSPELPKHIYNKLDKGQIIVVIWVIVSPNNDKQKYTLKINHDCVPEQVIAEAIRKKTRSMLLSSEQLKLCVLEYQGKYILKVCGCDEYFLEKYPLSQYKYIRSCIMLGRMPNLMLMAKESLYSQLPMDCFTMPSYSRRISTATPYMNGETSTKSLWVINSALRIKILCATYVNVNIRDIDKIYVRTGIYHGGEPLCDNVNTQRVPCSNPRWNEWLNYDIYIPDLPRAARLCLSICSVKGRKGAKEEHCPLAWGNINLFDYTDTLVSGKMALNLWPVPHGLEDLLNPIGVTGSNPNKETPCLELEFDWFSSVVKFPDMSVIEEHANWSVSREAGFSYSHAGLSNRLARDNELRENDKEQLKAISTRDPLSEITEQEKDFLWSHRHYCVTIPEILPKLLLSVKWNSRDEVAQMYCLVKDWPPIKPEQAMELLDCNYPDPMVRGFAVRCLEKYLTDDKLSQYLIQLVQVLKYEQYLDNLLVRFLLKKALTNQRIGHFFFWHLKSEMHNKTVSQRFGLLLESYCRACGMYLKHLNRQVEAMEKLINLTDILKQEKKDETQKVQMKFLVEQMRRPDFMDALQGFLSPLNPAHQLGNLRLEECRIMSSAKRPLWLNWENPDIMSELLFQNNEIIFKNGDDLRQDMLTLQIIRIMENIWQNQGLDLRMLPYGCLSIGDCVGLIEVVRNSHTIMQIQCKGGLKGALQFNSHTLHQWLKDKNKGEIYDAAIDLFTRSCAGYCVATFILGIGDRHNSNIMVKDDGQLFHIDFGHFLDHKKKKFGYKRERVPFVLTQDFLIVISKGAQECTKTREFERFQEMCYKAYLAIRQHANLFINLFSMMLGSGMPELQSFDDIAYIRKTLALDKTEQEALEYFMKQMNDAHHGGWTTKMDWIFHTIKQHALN
Sequence (P27986 whole entry partner, canonical isoform): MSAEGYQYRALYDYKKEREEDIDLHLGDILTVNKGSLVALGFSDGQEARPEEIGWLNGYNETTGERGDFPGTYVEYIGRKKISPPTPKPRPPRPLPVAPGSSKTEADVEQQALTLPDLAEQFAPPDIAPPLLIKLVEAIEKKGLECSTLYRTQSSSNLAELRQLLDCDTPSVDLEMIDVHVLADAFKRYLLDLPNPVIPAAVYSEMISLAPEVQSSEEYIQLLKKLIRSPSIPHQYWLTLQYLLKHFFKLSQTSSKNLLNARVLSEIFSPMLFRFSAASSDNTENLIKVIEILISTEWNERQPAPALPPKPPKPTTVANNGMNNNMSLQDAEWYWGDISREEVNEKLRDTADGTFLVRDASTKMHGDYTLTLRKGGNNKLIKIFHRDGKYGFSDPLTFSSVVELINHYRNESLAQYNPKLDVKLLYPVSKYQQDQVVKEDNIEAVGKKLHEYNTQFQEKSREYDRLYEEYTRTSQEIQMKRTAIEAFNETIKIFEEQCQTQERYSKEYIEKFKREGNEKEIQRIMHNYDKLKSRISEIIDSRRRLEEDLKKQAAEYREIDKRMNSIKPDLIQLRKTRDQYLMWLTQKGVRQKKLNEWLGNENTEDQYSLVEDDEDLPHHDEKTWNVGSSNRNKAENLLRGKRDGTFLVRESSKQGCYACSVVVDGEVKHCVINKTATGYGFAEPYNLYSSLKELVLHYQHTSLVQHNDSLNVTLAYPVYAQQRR
Experiment: In vitro enzyme assay (AlphaScreen), inhibition of phosphorylation of PI(4,5)P2 by recombinant Type I PI3K
Settings: DiC8-PI(4,5)P2 40 μM, ATP 4 μM, read-out: IC50 versus p110α Type Ia human PI3K, Test (a)
Description: (a) In Vitro Enzyme Assay The assay used AlphaScreen technology (Gray et al., Analytical Biochemistry, 2003, 313: 234-245) to determine the ability of test compounds to inhibit phosphorylation by recombinant Type I PI3K enzymes of the lipid PI(4,5)P2. DNA fragments encoding human PI3K catalytic and regulatory subunits were isolated from cDNA libraries using standard molecular biology and PCR cloning techniques. The selected DNA fragments were used to generate baculovirus expression vectors. […]
reported.endpoint: IC50

INSERT INTO measurements (molecule, reported_endpoint, observed_measurement) VALUES
  ('N[C@H]1CCC[C@@H](CC(=O)Nc2cccc(-c3nc(-c4cccc(CO)c4)cc(N4CCOCC4)n3)c2)C1 [Example 6(33)]', 'IC50', '~700 nM'),
  ('O=C(Nc1cccc(-c2nc(-c3cccc(O)c3)cc(N3CCOCC3)n2)c1)C1CCNCC1 [Example 4(3)]', 'IC50', '~1000 nM');

Consider the record given below.
Query :: Which value of IC50 has been reported for NCc1cccc(C(=O)Nc2cccc(-c3nc(-c4cccc(CO)c4)cc(N4CCOCC4)n3)c2)c1 [Example 6(48)] in the records?
Result :: ~1000 nM

Each recorded value in this set is attributed to patent US20080058332A1.
